This collection of values is drawn from the supplement of paper PMC10307832.

test system: NCI-H1975; assay: relative viability (nuclei count vs DMSO), 5 days (fraction); higher = more cells survive; settings: first compound 0.1581 µM
Recorded measurements of relative viability, one per entry

Sample answers from the record:
Nc1ccn([C@@H]2O[C@H](CO)[C@@H](O)[C@@H]2O)c(=O)n1 [Cytarabine] + Nc1nc2[nH]cc(CCc3ccc(C(=O)N[C@@H](CCC(=O)O)C(=O)O)cc3)c2c(=O)[nH]1 [Pemetrexed] (partner 0.2 µM) : 0.28
COc1cc2nccc(Oc3ccc(NC(=O)Nc4cc(C)on4)c(Cl)c3)c2cc1OC [Tivozanib] + CC1(C)CCC(c2ccc(Cl)cc2)=C(CN2CCN(c3ccc(C(=O)NS(=O)(=O)c4ccc(N[C@H](CCN5CCOCC5)CSc5ccccc5)c(S(=O)(=O)C(F)(F)F)c4)cc3)CC2)C1 [Navitoclax] (partner 0.5 µM) : 1.06
Nc1ccn([C@@H]2O[C@H](CO)[C@@H](O)[C@@H]2O)c(=O)n1 [Cytarabine] + CC(=O)Nc1cccc(-n2c(=O)n(C3CC3)c(=O)c3c(Nc4ccc(I)cc4F)n(C)c(=O)c(C)c32)c1 [Trametinib] (partner 0.02 µM) : 0.25
COc1cc2nccc(Oc3ccc(NC(=O)Nc4cc(C)on4)c(Cl)c3)c2cc1OC [Tivozanib] + NC(=O)Nc1cc(-c2cccc(F)c2)sc1C(=O)N[C@H]1CCCNC1 [AZD7762] (partner 0.2 µM) : 0.836

Give me measured relative viability, please, for this compound: COc1cc2nccc(Oc3ccc(NC(=O)Nc4cc(C)on4)c(Cl)c3)c2cc1OC [Tivozanib] + COc1cccc2cc(-c3nc([C@H]4CC[C@H](C(=O)O)CC4)n4ncnc(N)c34)[nH]c12 [OSI-027] (partner 0.5 µM)
0.565

Determine from records and report relative viability for Nc1ccn([C@@H]2O[C@H](CO)[C@@H](O)[C@@H]2O)c(=O)n1 [Cytarabine] + CS(=O)(=O)CCNCc1ccc(-c2ccc3ncnc(Nc4ccc(OCc5cccc(F)c5)c(Cl)c4)c3c2)o1 [Lapatinib] (partner 2 µM)
0.456

Look up and state reported relative viability for COc1cc2nccc(Oc3ccc(NC(=O)Nc4cc(C)on4)c(Cl)c3)c2cc1OC [Tivozanib] + COc1cc2c(Oc3ccc(NC(=O)C4(C(=O)Nc5ccc(F)cc5)CC4)cc3F)ccnc2cc1OCCCN1CCOCC1 [Foretinib] (partner 0.25 µM)
0.965

Identify measured relative viability corresponding to Nc1ccn([C@@H]2O[C@H](CO)[C@@H](O)[C@@H]2O)c(=O)n1 [Cytarabine] + C[C@]1(O)C[C@@H](c2nc(-c3ccc4ccc(-c5ccccc5)nc4c3)c3c(N)nccn32)C1 [Linsitinib] (partner 1 µM)
0.764

Look up and state reported relative viability for COc1cc2nccc(Oc3ccc(NC(=O)Nc4cc(C)on4)c(Cl)c3)c2cc1OC [Tivozanib] + N=C(N)NC(=N)NCCc1ccccc1 [Phenformin] (partner 250 µM)
0.423

Fill in reported relative viability for this entry: Nc1ccn([C@@H]2O[C@H](CO)[C@@H](O)[C@@H]2O)c(=O)n1 [Cytarabine] + Cc1nc(Nc2ncc(C(=O)Nc3c(C)cccc3Cl)s2)cc(N2CCN(CCO)CC2)n1 [Dasatinib] (partner 0.075 µM)
0.297

Supply relative viability value. Item: Nc1ccn([C@@H]2O[C@H](CO)[C@@H](O)[C@@H]2O)c(=O)n1 [Cytarabine] + Cc1nc(NC(=O)N2CCC[C@H]2C(N)=O)sc1-c1ccnc(C(C)(C)C(F)(F)F)c1 [Alpelisib] (partner 2 µM)
0.418
